# Test system: Plasmodium falciparum
# method.summary: GSK_TCMDC: Inhibition of Plasmodium falciparum 3D7 in whole red blood cells, using parasite LDH activity as an index of growth. Test compounds present at 2uM
# Format: functional
Would you mind telling me the reported Inhibition of each entry?
Enter the number, and then the unit.

Kindly note the recorded Inhibition for "O=C(Nc1ccc(S(=O)(=O)N2CCCCCC2)cc1)c1cc(-c2ccccc2O)n[nH]1" , which is 100%

Kindly note the recorded Inhibition for Cc1cc2ccccc2n1CC(=O)N1CC(C(=O)N2CCCCC2)Oc2ccccc21 (stereo unspecified) , which is 99%

Kindly note the recorded Inhibition for "Cc1cc(Nc2ccccc2)nc(NCCOc2ccccc2)n1.Cl" , which is 100%

Kindly note the recorded Inhibition for CCCCCCNC(=O)C(N)CCCC(N)C(=O)NCCCCCC.Cc1ccc(S(=O)(=O)O)cc1 (stereo unspecified) , which is 99%

Kindly note the recorded Inhibition for O=C(Nc1ccc(Cl)c(Cl)c1)C1CCC(=O)N1[C@@H](Cc1ccccc1)C(=O)NCCc1ccc(Cl)cc1 (stereo partly specified) , which is 95%

Kindly note the recorded Inhibition for CSC1=NC(=Nc2ccccc2C)C2(CCC(C(C)(C)C)CC2)N1c1ccccc1Cl.I (stereo unspecified) , which is 96%

Kindly note the recorded Inhibition for "CCOC(=O)C(C)(C)Oc1ccc(CN(Cc2ccc(CC(C)C)cc2)C(=O)Nc2ccc(F)cc2F)c(OC)c1" , which is 97%

Kindly note the recorded Inhibition for Cc1cccc2nc(-c3ccc(-c4ccc(CN5CCN(CC6CCCN(C)C6)CC5)cc4)s3)[nH]c12.O=C(O)C(F)(F)F (stereo unspecified) , which is 100%

Kindly note the recorded Inhibition for "CN(/N=C/C=C/c1ccc(Cl)cc1)c1nc(NCCc2ccc(O)cc2)nc(N2CCNCC2)n1" , which is 92%

Kindly note the recorded Inhibition for "CNCCNCc1ccc(-c2cccc(-c3nc4cc(F)ccc4[nH]3)c2)cc1.O=C(O)C(F)(F)F" , which is 93%

Kindly note the recorded Inhibition for "O=C(O)C(F)(F)F.Oc1ccc(CCNc2nc(NCCCOc3ccccc3-c3cccc(C(F)(F)F)c3)nc(N3CCNCC3)n2)cc1" , which is 93%

----------
# Tested on: HepG2
# method.summary: GSK_TCMDC: Percent inhibition of human HepG2 cell line. Test compounds present at 10uM.
# Format: functional
readout: Inhibition (%)
Enter your answer as a number in %; do not include the unit.

Kindly note the recorded Inhibition for "CCOc1ccc(N2C(N)=NC(N)=NC2(C)C)cc1.Cl" , which is 10

Kindly note the recorded Inhibition for "COc1ccc(/N=C(\N)Nc2ccccc2)nc1Cc1ccccc1" , which is 17

Kindly note the recorded Inhibition for "Cc1cccc(Nc2nc(NCCCCN)nc3cc[nH]c(=O)c23)c1.O=C(O)C(F)(F)F" , which is 34

----------
Would you mind telling me the reported Inhibition of each entry?
# Tested on: Plasmodium falciparum
# method.summary: GSK_TCMDC: Inhibition of Plasmodium falciparum 3D7 in whole red blood cells, using parasite LDH activity as an index of growth. Test compounds present at 2uM
# Format: functional
Enter your answer as a number in %; do not include the unit.

Kindly note the recorded Inhibition for CN(C)C(CNC(=O)c1cc(-c2ccncc2)c(-c2cc3ccccc3[nH]2)o1)c1ccccc1.O=C(O)C(F)(F)F (stereo unspecified) , which is 96

Kindly note the recorded Inhibition for "Fc1ccc(-c2cncc(Nc3ccncc3)n2)cc1" , which is 88

Kindly note the recorded Inhibition for Cc1cccc2nc(-c3ccc(-c4cccc(CNCC5CCCO5)c4)s3)[nH]c12.O=C(O)C(F)(F)F (stereo unspecified) , which is 93

Kindly note the recorded Inhibition for "COc1ccc(C(=O)Nc2ccc(Cl)cc2C(=O)Nc2ccncc2)cc1" , which is 91

Kindly note the recorded Inhibition for "CN1CCC[C@H]1COc1ccc(CN2CC[C@H](NC(=O)c3ccc(Cl)c(Cl)c3)C2)cc1Br.O=C(O)C(F)(F)F" , which is 100

Kindly note the recorded Inhibition for "N#Cc1cc(N(CCCOc2cccc(OC(F)(F)F)c2)Cc2ccccc2C(F)(F)F)ccc1C(F)(F)F" , which is 94

Kindly note the recorded Inhibition for "CNc1c2c(nc3ccc(NC(=O)CCCCCCc4ccccc4)cc13)CCCC2.Cl" , which is 100

Kindly note the recorded Inhibition for "Cc1c(-c2ccc(C(=O)NC3CC(C)(C)NC(C)(C)C3)cc2)[nH]c2cc(Cl)c(Cl)cc12" , which is 98

Kindly note the recorded Inhibition for O=C(Nc1ccc(C(F)(F)F)cc1)NC1CCN(c2ccnc3cc(Cl)ccc23)C1.O=C(O)C(F)(F)F (stereo unspecified) , which is 100

Kindly note the recorded Inhibition for "CCOC(=O)C1=C(C)NC(C)=C(C(=O)OCC)C1(C(=O)OCc1ccccc1)c1cccc(C(F)(F)F)c1" , which is 88

Kindly note the recorded Inhibition for "Cc1cc(=O)[nH]c(-n2nc(C)cc2NC(=O)C2(c3ccc(Cl)cc3)CCCC2)n1" , which is 96

Kindly note the recorded Inhibition for Cc1cccc2nc(-c3ccc(-c4ccc(CN5CC(C)OC(C)C5)cc4)cc3)[nH]c12.O=C(O)C(F)(F)F (stereo unspecified) , which is 97

Kindly note the recorded Inhibition for "Cc1ccc(Nc2nc3cc(N(C)c4ccnc(Nc5cccc(CS(C)(=O)=O)c5)n4)ccc3o2)cc1.O=C(O)C(F)(F)F" , which is 90

Kindly note the recorded Inhibition for "CCN(CC)CCCN(Cc1ccc(-c2ccc(C(F)(F)F)cc2)cc1)C(=O)Cn1c(SCc2cccc(F)c2F)cc(=O)c2ccccc21.O=C(O)C(O)C(O)C(=O)O" , which is 87

Kindly note the recorded Inhibition for "CCc1cccc(NC(=O)c2ccc(CN3CCCN(CC4CCCCC4)CC3)cc2)c1.O=C(O)C(F)(F)F" , which is 84

Kindly note the recorded Inhibition for "COc1cccc([C@@H](CC(=O)Nc2cc(C(F)(F)F)ccc2OC)Nc2ccc(C#N)c3ccccc23)c1" , which is 96

----------
Would you mind telling me the reported Inhibition of each entry?
# Test system: Plasmodium falciparum
# method.summary: GSK_TCMDC: Inhibition of Plasmodium falciparum 3D7 in whole red blood cells, using parasite LDH activity as an index of growth. Test compounds present at 2uM
# Format: functional
Enter your answer as a number in %; do not include the unit.

Kindly note the recorded Inhibition for "O=C(O)C(F)(F)F.Oc1ccc(CCNc2nc(NCCCOc3cc(CN4CCCCC4)ccc3F)nc(N3CCNCC3)n2)cc1" , which is 100

Kindly note the recorded Inhibition for "CC1(C)N=C(N)N=C(N)N1c1ccc2ccccc2c1.Cl" , which is 95

Kindly note the recorded Inhibition for "O=C(/C=C/c1ccc(Cl)c(Cl)c1)NC1CCN(CCCNC(=O)c2cccc(Cl)c2)CC1.O=C(O)C(F)(F)F" , which is 100

Kindly note the recorded Inhibition for CCN(CC)CCCC(C)Nc1c2ccccc2nc2ccc3ccccc3c12.Cl (centres undefined) , which is 100

----------
# System: Plasmodium falciparum
# method.summary: GSK_TCMDC: Inhibition of Plasmodium falciparum 3D7 in whole red blood cells, using parasite LDH activity as an index of growth. Test compounds present at 2uM
# Assay type: functional
readout: Inhibition

Kindly note the recorded Inhibition for COC(=O)c1ccc(CCC(C)NCC(O)c2cccc(C(F)(F)F)c2)cc1.Cl (stereo not given) , which is 99%

Kindly note the recorded Inhibition for "CN1CCC(N(Cc2ccc(-c3cnc(NCc4ccccc4)nc3)cc2)S(=O)(=O)c2ccccc2)CC1.O=C(O)C(F)(F)F" , which is 100%

Kindly note the recorded Inhibition for "O=C(O)C(F)(F)F.c1cc(-c2ccc(CNCCCN3CCOCC3)cc2)cc(-c2nc3ccccc3[nH]2)c1" , which is 100%

Kindly note the recorded Inhibition for "CCCCN1CCCN(Cc2cccc(NC(=O)c3ccc(-c4ccccc4)cc3)c2)CC1.O=C(O)C(F)(F)F" , which is 92%

Kindly note the recorded Inhibition for "Cc1cccc2nc(-c3ccc(-c4ccc(CNCc5cnn(-c6ccccc6)n5)cc4)s3)[nH]c12.O=C(O)C(F)(F)F" , which is 97%

Kindly note the recorded Inhibition for O=[N+]([O-])c1cccc(C(Nc2ccccn2)c2ccc3cccnc3c2O)c1 (stereo not given) , which is 86%

Kindly note the recorded Inhibition for "CCN1CCN(c2cc(C)c3cc(NC(=O)c4cccc(OC)c4)ccc3n2)CC1" , which is 99%

Kindly note the recorded Inhibition for "COc1ccccc1CCNc1nc(C)cc(N[C@@H](Cc2ccccc2)C(=O)NCCCOC(C)C)n1.O=C(O)C(F)(F)F" , which is 99%

Kindly note the recorded Inhibition for "CCCCCCCN1CCC(CCNc2ccnc3ccc(OC)cc23)CC1" , which is 84%

Kindly note the recorded Inhibition for "O=C(c1cc(OC(F)(F)F)ccc1O)N1CCN(c2ccccc2)CC1" , which is 88%

----------
# System: Plasmodium falciparum
# method.summary: GSK_TCMDC: Inhibition of Plasmodium falciparum Dd2 in whole red blood cells, using parasite LDH activity as an index of growth. Test compounds present at 2uM
# Type: functional
readout: Inhibition

The reported Inhibition value, Plasmodium falciparum, for "FC(F)(F)c1cccc(Nc2nc3ccccc3nc2Nc2cccc(C(F)(F)F)c2)c1" reads 100%

The reported Inhibition value, Plasmodium falciparum, for "COCCNC(=O)C1CCN(C(c2ccc(Cl)cc2)c2ccc(Cl)cc2)CC1" reads 73%

The reported Inhibition value, Plasmodium falciparum, for "CC(C)c1sc(-c2ccc(C(C)(C)C)cc2)nc1C(=O)NCCCN1CCCC1=O" reads 92%

The reported Inhibition value, Plasmodium falciparum, for "CCCCCN1CCCN(Cc2cccc(NC(=O)c3ccc(-c4ccccc4)cc3)c2)CC1.O=C(O)C(F)(F)F" reads 15%

The reported Inhibition value, Plasmodium falciparum, for "COc1cc(Cc2cnc(N)nc2N)cc(OCCCc2cc(OCc3ccccc3)no2)c1OC" reads 4%

The reported Inhibition value, Plasmodium falciparum, for "Cl.Oc1ccc2c(c1NCC1CCCCC1)CCCC2" reads 99%

The reported Inhibition value, Plasmodium falciparum, for "CC[C@H](C)CNC(=O)c1cccc(-c2ccc(CN3CCC(N4CCCC4)CC3)cc2)n1.O=C(O)C(F)(F)F" reads 82%

The reported Inhibition value, Plasmodium falciparum, for "COc1ccc(-c2cnc3[nH]cc(-c4ccncc4)c3c2)cc1OC" reads 97%

The reported Inhibition value, Plasmodium falciparum, for CC1CCC(C[C@@H](C(=O)N[C@H](C(=O)Nc2nccs2)[C@@H](C)O)[C@H](CCC(F)(F)F)N(O)C=O)CC1 (stereo partly specified) reads 94%

The reported Inhibition value, Plasmodium falciparum, for "C=CCc1ccc(C[C@H](NC(=O)OC(C)(C)C)C(=O)OC)cc1" reads 98%

The reported Inhibition value, Plasmodium falciparum, for "O=C(NCCCN1CCOCC1)c1ccc(-c2cccc(NC(=O)c3ccc(Cl)c(Cl)c3)c2)cc1" reads 68%

The reported Inhibition value, Plasmodium falciparum, for "Cc1nc2c(c([O-])c1Cl)-c1ccc(Oc3cccc(C(F)(F)F)c3)cc1C2=O.[Na+]" reads 95%

The reported Inhibition value, Plasmodium falciparum, for "O=C(O)c1cccc2c(-c3ccncc3)cccc12" reads 1%

The reported Inhibition value, Plasmodium falciparum, for "Cc1cccc2nc(-c3cccc(-c4cccc(NC(=O)Nc5ccc(F)c(F)c5F)c4)c3)[nH]c12" reads 99%

The reported Inhibition value, Plasmodium falciparum, for "CC(C)CCN1CCC(Oc2ccc(NC(=O)c3ccccc3)cc2Cl)CC1.O=C(O)C(F)(F)F" reads 88%

The reported Inhibition value, Plasmodium falciparum, for CC(=O)c1ccc(N2C(=O)C3C(Cc4ccc(OC(C)(C)C)cc4)NC4(C(=O)N(Cc5ccc(C(C)(C)C)cc5)c5ccccc54)C3C2=O)cc1 (stereo unspecified) reads 81%

The reported Inhibition value, Plasmodium falciparum, for "COc1cccc(Nc2nc(C)cc(Nc3cccc(C#N)c3)n2)c1" reads 92%

The reported Inhibition value, Plasmodium falciparum, for COc1cc2c(cc1N1CC(C)NC(C)C1)N(C(=O)c1ccc(-c3ccc(-c4ncc[nH]4)cc3C)cc1)CC2 (stereo unspecified) reads 58%

The reported Inhibition value, Plasmodium falciparum, for "CCCCCCN1CCCN(Cc2cccc(NC(=O)c3cc4ccccc4s3)c2)CC1.O=C(O)C(F)(F)F" reads 53%

The reported Inhibition value, Plasmodium falciparum, for "COc1ccc(CN2CCC(CNCC(c3ccccc3)c3ccccc3)CC2)cc1.O=C(O)C(F)(F)F" reads 95%

The reported Inhibition value, Plasmodium falciparum, for "CCCCCN1CCC(CNS(=O)(=O)c2ccc(C(=O)Nc3cccc(C(F)(F)F)c3)cc2)CC1.O=C(O)C(F)(F)F" reads 13%

The reported Inhibition value, Plasmodium falciparum, for "COc1ccc(S(=O)(=O)NC2CCN(c3cc(C)nc(Nc4cccc(C#N)c4)n3)CC2)cc1.O=C(O)C(F)(F)F" reads 55%

The reported Inhibition value, Plasmodium falciparum, for "O=C(N[C@H]1CCN(Cc2ccc(OC3CCN(Cc4ccccc4)CC3)c(Cl)c2)C1)c1ccc(Cl)c(Cl)c1.O=C(O)C(F)(F)F" reads 11%

The reported Inhibition value, Plasmodium falciparum, for "CC(=O)c1ccc(-n2ccnc2)cc1" reads 0%

The reported Inhibition value, Plasmodium falciparum, for "Cc1cc(CNCCCCCCNCc2cccc([N+](=O)[O-])c2)ccc1O" reads 0%

The reported Inhibition value, Plasmodium falciparum, for CC(CC(=O)NCC1(c2ccc(F)cc2Cl)CCOCC1)C(=O)c1ccc(Cl)cc1 (stereo unspecified) reads 91%
